- Test system: MOLM-13 cells
- method.description: Cell viability assay (CellTiter-Glo) in MOLM-13 cells
- Type: cell-based
- condition.info: MOLM-13 cells, with gilteritinib, three days; read-out: MOLM-13 IC50 (nM) + 10 nM Gil
Below is a list of entries, each paired with its recorded IC50 value.

molecule: Cn1ncc2cnc(-c3cn([C@H]4C[C@H](COc5ccc6c(c5)C(=O)N(C5CCC(=O)NC5=O)C6=O)C4)nc3C3CC3)cc21 (stereo partly drawn)
IC50: 100 to 1000 nM
//
molecule: O=C1CCC(N2C(=O)c3ccc(NC[C@H]4C[C@H](n5cc(Nc6ccccn6)c(C6CC6)n5)C4)cc3C2=O)C(=O)N1 (stereo partly drawn)
IC50: 100 to 1000 nM
//
molecule: Cc1cc(F)cnc1-c1cn([C@H]2C[C@H](CNc3ccc4c(c3)C(=O)N(C3CCC(=O)NC3=O)C4=O)C2)nc1C1CC1 (stereo partly drawn)
IC50: < 10 nM
//
molecule: O=C1CCC(N2C(=O)c3ccc(NC[C@H]4C[C@H](n5cc(-c6cc7nn(C8CC(O)C8)cc7cn6)c(C6CC6)n5)C4)cc3C2=O)C(=O)N1 (stereo partly drawn)
IC50: < 10 nM
//
molecule: Cn1ncc2cnc(-c3cn([C@H]4C[C@H](CNc5ccc6c(c5)C(=O)N(C5CCC(=O)NC5=O)C6=O)C4)nc3C(F)F)cc21 (stereo partly drawn)
IC50: < 10 nM

For the molecule O=C1CCC(N2C(=O)c3ccc(NC[C@H]4C[C@H](n5cc(-c6ccc7cn[nH]c7n6)c(C6CC6)n5)C4)cc3C2=O)C(=O)N1 (stereo partly drawn) , what IC50 is on record?
10 to 100 nM

----------
- System: MV4;11 cells
- method.description: Cell viability assay (CellTiter-Glo) in MV4;11 cells
- Type: cell-based
- condition.info: Homo sapiens, MV4-11, 72 h, MV4;11 cells, compound alone, three days; read-out: MV4; 11 IC50
IC50 values, listed per item

See these solved cases before continuing.
compound: N[C@H]1C[C@H](n2ncc3cnc(-c4cn([C@H]5C[C@H](CNc6ccc7c(c6)C(=O)N(C6CCC(=O)NC6=O)C7=O)C5)nc4C4CC4)cc32)C1 (stereo partly drawn)
IC50: 10 to 100 nM

compound: Cn1cc(Nc2cn([C@H]3C[C@H](CNc4ccc5c(c4)C(=O)N(C4CCC(=O)NC4=O)C5=O)C3)nc2C2CC2)cn1 (stereo partly drawn)
IC50: < 10 nM

compound: O=C1CCC(N2C(=O)c3ccc(NC[C@H]4C[C@H](n5nc(C6CC6)c6ccc(N7CCNCC7)cc65)C4)cc3C2=O)C(=O)N1 (stereo partly drawn)
IC50: > 1000 nM

compound: O=C1CCC(N2C(=O)c3cc(F)c(NCCC[C@H]4C[C@H](n5cc(-c6cnc7ccccc7n6)c(C6CC6)n5)C4)cc3C2=O)C(=O)N1 (stereo partly drawn)
IC50: > 1000 nM

compound: O=C1CCC(N2C(=O)c3ccc(NC[C@H]4C[C@H](n5cc(-c6cccc(N7CC(O)C7)n6)c(C6CC6)n5)C4)cc3C2=O)C(=O)N1 (stereo partly drawn)
IC50: > 1000 nM

The record that follows has no IC50 shown yet.
Form entry - test system: MV4;11 cells; read-out: IC50; compound: O=C1CCC(N2C(=O)c3ccc(NCCC4CC5(C4)CC(n4cc(-c6cnc7ccccc7n6)c(C6CC6)n4)C5)cc3C2=O)C(=O)N1 (stereo not drawn)
< 10 nM

----------
pIC50: recorded values
- Test system: MV4;11 cells
- method.description: Cell viability assay (CellTiter-Glo) in MV4;11 cells
- Assay type: cell-based
- condition.info: Homo sapiens, MV4-11, 72 h, MV4;11 cells, compound alone, three days; read-out: MV4; 11 IC50
pIC50: −log10 of the molar value.

Past entries and their recorded results:
compound: O=C1CCC(N2C(=O)c3ccc(NC[C@H]4C[C@H](n5nc(C6CC6)c6nccnc65)C4)cc3C2=O)C(=O)N1 (stereo partly shown) [GS-648]
measurement: < 6.00
//
compound: O=C1CCC(N2C(=O)c3ccc(NC[C@H]4C[C@H](n5cc(-c6ccc7[nH]ncc7n6)c(C6CC6)n5)C4)cc3C2=O)C(=O)N1 (stereo partly shown) [GS-684]
measurement: 7.00 to 8.00
//
compound: Cc1cccc(-c2cn(C3CC4(CC(CCNc5ccc6c(c5)C(=O)N(C5CCC(=O)NC5=O)C6=O)C4)C3)nc2C2CC2)n1 (stereo not shown) [GS-749]
measurement: 7.00 to 8.00
//
compound: CN1CCC(Nc2cn([C@H]3C[C@H](CNc4ccc5c(c4)C(=O)N(C4CCC(=O)NC4=O)C5=O)C3)nc2C2CC2)CC1 (stereo partly shown) [GS-666]
measurement: < 6.00
//
compound: Cc1c2ccccc2nn1[C@H]1C[C@H](CNc2ccc3c(c2)C(=O)N(C2CCC(=O)NC2=O)C3=O)C1 (stereo partly shown) [GS-688]
measurement: < 6.00
//
compound: O=C1CCC(N2C(=O)c3ccc(NC[C@H]4C[C@H](n5cc(-c6cnc7cc(N8CC(O)C8)ccc7n6)c(C6CC6)n5)C4)cc3C2=O)C(=O)N1 (stereo partly shown) [GS-712]
measurement: > 8.00
//
compound: Cc1ccc2c(C3CC3)nn([C@H]3C[C@H](CNc4ccc5c(c4)C(=O)N(C4CCC(=O)NC4=O)C5=O)C3)c2n1 (stereo partly shown) [GS-672]
measurement: < 6.00
//
compound: O=C1CCC(N2C(=O)c3ccc(NC[C@H]4C[C@H](n5cc(-c6ncccc6[C@H]6C[C@@H](O)C6)c(C6CC6)n5)C4)cc3C2=O)C(=O)N1 (stereo partly shown) [GS-771]
measurement: 7.00 to 8.00

Give its pIC50 value. Item: Cc1cc(F)cnc1-c1cn([C@H]2C[C@H](CNc3ccc4c(c3)C(=O)N(C3CCC(=O)NC3=O)C4=O)C2)nc1C(F)F (stereo partly shown) [GS-719]
7.00 to 8.00

Can you share its pIC50? I mean this compound: COc1ccc2c(C3CC3)nn([C@H]3C[C@H](CNc4ccc5c(c4)C(=O)N(C4CCC(=O)NC4=O)C5=O)C3)c2n1 (stereo partly shown) [GS-674]
< 6.00

Can you share its pIC50? I mean this compound: Cn1ncc2cnc(-c3cn([C@H]4C[C@H](CNc5ccc6c(c5)C(=O)N(C5CCC(=O)NC5=O)C6=O)C4)nc3C(F)F)cc21 (stereo partly shown) [GS-657]
7.00 to 8.00

Give the measured pIC50 of CN1CC(c2ccc3nc(-c4cn([C@H]5C[C@H](CNc6ccc7c(c6)C(=O)N(C6CCC(=O)NC6=O)C7=O)C5)nc4C4CC4)cnc3c2)C1 (stereo partly shown) [GS-755] .
7.00 to 8.00

State the recorded pIC50 for this entry: O=C1CCC(N2Cc3cc(NC[C@H]4C[C@H](n5cc(-c6cnc7ccccc7n6)c(C6CC6)n5)C4)ccc3C2=O)C(=O)N1 (stereo partly shown) [GS-651]
> 8.00

----------
# key: entry, value: IC50
- Tested on: HEL cells
- method.description: Cell viability assay in HEL cells
- Format: cell-based
- condition.info: Homo sapiens

molecule: Cc1ccc(Cl)c(-c2cn([C@H]3C[C@H](CNc4ccc5c(c4)CN(C4CCC(=O)NC4=O)C5=O)C3)nc2C2CC2)n1 (stereo partly drawn) [GS-805]
assay.system: HEL cells
IC50: < 10 nM
//
molecule: Cc1nc(-c2cn([C@H]3C[C@H](CNc4ccc5c(c4)CN([C@H]4CCC(=O)NC4=O)C5=O)C3)nc2C2CC2)ccc1F [GS-800]
assay.system: HEL cells
IC50: 10 to 100 nM

Next up:
Which IC50 value belongs to Cc1ccc(F)c(-c2cn([C@H]3C[C@H](CNc4ccc5c(c4)CN(C4CCC(=O)NC4=O)C5=O)C3)nc2C2CC2)n1 (stereo partly drawn) [GS-807] ?
< 10 nM

----------
Entries and their pIC50 values follow.
- Test system: MV4;11 cells
- method.description: Cell viability assay (CellTiter-Glo) in MV4;11 cells
- Assay type: cell-based
- condition.info: Homo sapiens, MV4-11, 72 h, MV4;11 cells, compound alone, three days; read-out: MV4; 11 IC50
pIC50: −log10 of the molar value.

Example entries begin here.
molecule: O=C1CCC(N2C(=O)c3ccc(NC[C@H]4C[C@H](n5cc(-n6ccc7cccnc76)c(C6CC6)n5)C4)cc3C2=O)C(=O)N1 (stereo partly drawn) [GS-751]
pIC50: > 8.00
//
molecule: Cn1ncc2cnc(-c3cn([C@H]4C[C@H](CCc5ccc6c(c5)CN([C@@H]5CCC(=O)NC5=O)C6=O)C4)nc3C3CC3)cc21 [GS-766]
pIC50: > 8.00
//
molecule: Cc1cccc(-c2cn(C3CC4(CC(C(=O)NCc5ccc6c(c5)C(=O)N(C5CCC(=O)NC5=O)C6=O)C4)C3)nc2C2CC2)n1 (stereo not drawn) [GS-774]
pIC50: 6.00 to 7.00
//
molecule: O=C1CCC(N2C(=O)c3ccc(NC[C@H]4C[C@H](n5nc(C6CC6)c6cccc(N7CCNCC7)c65)C4)cc3C2=O)C(=O)N1 (stereo partly drawn) [GS-765]
pIC50: < 6.00
//
molecule: Cn1ccc2ccc(-c3cn([C@H]4C[C@H](CNc5ccc6c(c5)C(=O)N(C5CCC(=O)NC5=O)C6=O)C4)nc3C3CC3)nc21 (stereo partly drawn) [GS-722]
pIC50: 7.00 to 8.00

# lookup: pIC50 of Cc1nc(-c2cn([C@H]3C[C@H](COc4ccc5c(c4)C(=O)N(C4CCC(=O)NC4=O)C5=O)C3)nc2C2CC2)ccc1F (stereo partly drawn) [GS-715]
< 6.00
